Measured values drawn from ChEMBL document CHEMBL1201862 for this set.

System: T47D
assayOverview: NCI tumour cell line growth inhibition, 48 h
Calls of active or inactive are those of the source. Cut-off read from the data, not from the text of the source: active = GI50 up to about 1.1 µM and inactive = higher.

molecule	GI50
CCOC(=O)/C=C(\C(=O)OCC)n1cc(C)c(=O)n(Cc2cn(CCCCOC(C)=O)nn2)c1=O	11.6 µM (inactive)
CC(=O)OC1(C)CC(C)C(=O)C(C(O)CC2CC(=O)NC(=O)C2)C1 (centres undefined)	0.0179 µM (active)
CC1(C)COP(=S)(c2ccccn2)O[C@@H]1c1ccccc1 (some centres undefined)	22.3 µM (inactive)
CC1=CC(C)C(O)C(C)/C=C\C(O)C/C=C(/C)C(=O)CC(O)C(C)\C=C/C=C\C=C/C(=O)NC2=C(O)C(=O)c3c(cc(C)c(O)c3C1=O)C2=O (centres undefined)	> 100 µM (inactive)
Cc1ccc2c(c1)C(=O)/C(=C\c1ccccc1)CCS2(=O)=O	11.7 µM (inactive)
C1=Cc2ccccc2C1.C=C(C)c1ccccc1.[N-]=[N+]=Nc1ccccc1	68.5 µM (inactive)
CCc1n[nH]c(=O)n1N1C(=O)C2CCCCC2C1=O (centres undefined)	> 100 µM (inactive)
O=S(=O)(c1ccc(NC(=S)N/N=C/c2ccccc2O)cc1)N1CCCCC1	0.419 µM (active)
CC(C)(C)C1CCC2c3c([nH]c4ccccc34)C3C(=O)N(c4cccc([N+](=O)[O-])c4)C(=O)C3C2C1 (centres undefined)	28.8 µM (inactive)
